test system: mock-infected MT-4 cells; experiment: cytotoxicity (CC50) in mock-infected MT-4 cells (MTT); format: cell-based

>  <MOLECULE>
CC/C(=C\C#N)c1cc(C)c(Nc2ccnc(Nc3ccc(C#N)cc3)n2)c(C)c1

>  <pCC50 (M)>
4.9 M

$$$$
>  <MOLECULE>
COc1cc(/C=C/C#N)ccc1Nc1ccnc(Nc2ccc(C#N)cc2)n1

>  <pCC50 (M)>
4 M

$$$$
>  <MOLECULE>
C/C(=C\C#N)c1cc(C)c(Nc2ccnc(Nc3ccc(C#N)cc3)n2)c(C)c1

>  <pCC50 (M)>
4.5 M

$$$$
>  <MOLECULE>
N#C/C=C/c1ccc(Nc2ccnc(Nc3ccc(C#N)cc3)n2)c(Br)c1

>  <pCC50 (M)>
4 M

$$$$
>  <MOLECULE>
Cc1cc(/C(=C\C#N)C(C)C)cc(C)c1Nc1ccnc(Nc2ccc(C#N)cc2)n1

>  <pCC50 (M)>
4.8 M

$$$$
>  <MOLECULE>
Cc1cc(C=C(C#N)CC#N)cc(C)c1Nc1ccnc(Nc2ccc(C#N)cc2)n1 (mixture of isomers)

>  <pCC50 (M)>
5.7 M

$$$$
>  <MOLECULE>
Cc1cc(/C(=C/C#N)C(C)C)cc(C)c1Nc1ccnc(Nc2ccc(C#N)cc2)n1

>  <pCC50 (M)>
5.3 M

$$$$

====

Listed molecules paired with reported melting point

>  <COMPOUND_STRUCTURE>
CCOCc1ccc(Oc2ccnc(Nc3ccc(C#N)cc3)n2)c(C)c1

>  <MODIFIER>
=

>  <melting point, °C>
140

$$$$
>  <COMPOUND_STRUCTURE>
Cc1cc(/C=C/C(=O)N(C)C)cc(C)c1Nc1ccnc(Nc2ccc(C#N)cc2)n1

>  <MODIFIER>
>

>  <melting point, °C>
264

$$$$
>  <COMPOUND_STRUCTURE>
Cc1cc(/C=C/C(=O)N(C)CCC#N)cc(C)c1Nc1ccnc(Nc2ccc(C#N)cc2)n1

>  <MODIFIER>
=

>  <melting point, °C>
168

$$$$
>  <COMPOUND_STRUCTURE>
Cc1cc(/C=C(/F)C#N)cc(C)c1Nc1ccnc(Nc2ccc(C#N)cc2)n1

>  <MODIFIER>
=

>  <melting point, °C>
254

$$$$
>  <COMPOUND_STRUCTURE>
Cc1cc(-c2ccc(C#N)o2)cc(C)c1Nc1ccnc(Nc2ccc(C#N)cc2)n1

>  <MODIFIER>
>

>  <melting point, °C>
260

$$$$
>  <COMPOUND_STRUCTURE>
Cc1cc(/C=C(/C#N)C(=O)C(C)(C)C)cc(C)c1Nc1ccnc(Nc2ccc(C#N)cc2)n1

>  <MODIFIER>
=

>  <melting point, °C>
193

$$$$
>  <COMPOUND_STRUCTURE>
Cc1cc(C=C(Br)Br)cc(C)c1Nc1ccnc(Nc2ccc(C#N)cc2)n1

>  <MODIFIER>
=

>  <melting point, °C>
223

$$$$
>  <COMPOUND_STRUCTURE>
Cc1cc(/C=C\Cl)cc(C)c1Nc1ccnc(Nc2ccc(C#N)cc2)n1

>  <MODIFIER>
=

>  <melting point, °C>
250

$$$$
>  <COMPOUND_STRUCTURE>
Cc1ccc(N(C)C)c(C)c1Nc1ccnc(Nc2ccc(C#N)cc2)n1

>  <MODIFIER>
=

>  <melting point, °C>
132

$$$$
